biological target: T1, cloned human SRIF receptor SSTR1 (human, UniProt P30872 1-391); test: radioligand displacement (125I-[Leu8,D-Trp22,Tyr25]SRIF-28), membrane pellet sections
T1 construct: whole, on cells; also called hSSTR1
T1 sequence (P30872 whole entry): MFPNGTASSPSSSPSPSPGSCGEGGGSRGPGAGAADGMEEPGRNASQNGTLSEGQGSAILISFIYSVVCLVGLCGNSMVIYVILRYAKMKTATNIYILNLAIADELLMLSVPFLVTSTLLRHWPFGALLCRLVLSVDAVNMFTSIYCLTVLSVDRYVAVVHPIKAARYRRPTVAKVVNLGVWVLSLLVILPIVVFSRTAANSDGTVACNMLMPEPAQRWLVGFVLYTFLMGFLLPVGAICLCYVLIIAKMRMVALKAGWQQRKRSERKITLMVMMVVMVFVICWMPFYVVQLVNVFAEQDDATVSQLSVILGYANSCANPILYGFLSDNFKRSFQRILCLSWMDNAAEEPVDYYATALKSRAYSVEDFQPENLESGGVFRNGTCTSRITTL
Bridge positions count the residues as written; N and C are the ends. Square brackets hold non-standard residues; d marks the D form. * marks the point of attachment. d2Nal(3S-Me) = C[C@@H](c1ccc2ccccc2c1)[C@@H](N)C(=O)O; Phe(4-NH2) = Nc1ccc(C[C@H](N)C(=O)O)cc1; Carbamoyl = NC(=O)*
Exercise: state measured pIC50 for each of the binders provided.
Numbers only, as −log10 of the molar value.

| binder | pIC50 |
| --- | --- |
| H-CFY[d2Nal(3S-Me)]KTFC-OH (disulfide 1-8; SMILES C[C@@H](O)[C@@H]1NC(=O)[C@H](CCCCN)NC(=O)[C@@H]([C@@H](C)c2ccc3ccccc3c2)NC(=O)[C@H](Cc2ccc(O)cc2)NC(=O)[C@H](Cc2ccccc2)NC(=O)[C@@H](N)CSSC[C@@H](C(=O)O)NC(=O)[C@H](Cc2ccccc2)NC1=O, also called Peptide No. 17) [(cyclo)H-Cys-Phe-Tyr-threo-(2R,3S)C^βMe-2Nal-Lys-Thr-Phe-Cys-OH] | 6.39 |

Hi! Can you tell me pIC50 for each of these binders?
1. H-YCF[Phe(4-NH2)][dW]KTFC-OH (disulfide 2-9, synthetic cyclic nonapeptide; also called Peptide No. 7) [(cyclo)H-Tyr-Cys-Phe-4Aph-D-Trp-Lys-Thr-Phe-Cys-OH]
2. Carbamoyl-CF[Phe(4-NH2)]WKTYC-OH (disulfide 1-8, synthetic cyclic octapeptide; also called Peptide No. 10) [(cyclo)Cbm-Cys-Phe-4Aph-Trp-Lys-Thr-Tyr-Cys-OH]
3. H-[dC]FY[d2Nal(3S-Me)]KTFC-OH (disulfide 1-8, also called Peptide No. 16) [(cyclo)H-D-Cys-Phe-Tyr-threo-(2R,3S)C^βMe-2Nal-Lys-Thr-Phe-Cys-OH]
4. H-YCF[Phe(4-NH2)]WKTFC-OH (disulfide 2-9, synthetic cyclic nonapeptide; also called Peptide No. 6) [(cyclo)H-Tyr-Cys-Phe-4Aph-Trp-Lys-Thr-Phe-Cys-OH]
5. Carbamoyl-CF[Phe(4-NH2)]WKTFC-OH (disulfide 1-8, synthetic cyclic octapeptide; also called Peptide No. 3) [(cyclo)Cbm-Cys-Phe-4Aph-Trp-Lys-Thr-Phe-Cys-OH]
6. H-CF[Phe(4-NH2)][dW]KTFC-OH (disulfide 1-8, synthetic cyclic octapeptide; also called Peptide No. 2) [(cyclo)H-Cys-Phe-4Aph-D-Trp-Lys-Thr-Phe-Cys-OH]

A)
1. 6.29
2. 6.12
3. 6.26
4. 6.57
5. 6.19
6. 6.35

Q) Which measured pIC50 value corresponds to H-CF[Phe(4-NH2)]WKTFC-OH (disulfide 1-8, synthetic cyclic octapeptide, free N-terminus and free acid C-terminus; also called Peptide No. 1) [des-AA^1,2,4,5,12,13[4Aph^7]-SRIF, (cyclo)H-Cys-Phe-4Aph-Trp-Lys-Thr-Phe-Cys-OH] ?
A) 6.67
